Test: Light and dark box test (anti-anxiety effect)
Type: in vivo, mouse (Std-ddY, male)
Conditions: Mus musculus, 0.5 h; oral, 30 min before test; mice; p<0.05 vs vehicle; read-out: Anti-anxiety effect MED (minimum effective dose)
Text: Experiment 2: Light and dark box test (anti-anxiety effect) Anti-anxiety effect of test compounds was examined in a box with light and dark compartments according to the method of Crawley, J. and Goodwin, F. K. [cf. Pharmacol. Biochem. Behav. 13, 167-170 (1980)] with slight modification. […]
Catalogue of minimal effective dose values
Give a bare numeral; the unit mg/kg is implied.

1) CCCN(CCC)C(=O)CNc1nc(-c2ccc(C(F)(F)F)cc2)nc(C)c1C = 0.3
2) Cc1nc(-c2ccc(Cl)cc2)nc(NCC(=O)N(C)c2ccc(F)cc2)c1C = 0.3
3) CCN(C(=O)CNc1nc(-c2ccc(Cl)cc2)nc(C)c1C)c1ccccc1 = 0.1

Query: Which minimal effective dose is reported for this compound? CCCN(CCC)C(=O)COc1nc(-c2ccc(OC)cc2)nc(C)c1C
Result: 0.1

Query: Which minimal effective dose is reported for this compound? Cc1nc(-c2ccccc2)nc(NCC(=O)N(C)c2ccc(F)cc2)c1C
Result: 0.1

Query: Which minimal effective dose is reported for this compound? Cc1nc(-c2ccccc2)nc(NCC(=O)N(C)c2ccc(Cl)cc2)c1C
Result: 0.03

Query: Which minimal effective dose is reported for this compound? CCN(CC)C(=O)CNc1nc(-c2ccccc2)nc(C)c1C
Result: 0.3

Query: Which minimal effective dose is reported for this compound? CCCN(CCC)C(=O)CNc1nc(-c2ccccc2)nc(C)c1C
Result: 0.3
